So I've got a bunch of compounds here, and I need their Emax values.
TEST SYSTEM: SIRT1 (Homo sapiens, UniProt Q96EB6)
Sequence (Q96EB6 1-747): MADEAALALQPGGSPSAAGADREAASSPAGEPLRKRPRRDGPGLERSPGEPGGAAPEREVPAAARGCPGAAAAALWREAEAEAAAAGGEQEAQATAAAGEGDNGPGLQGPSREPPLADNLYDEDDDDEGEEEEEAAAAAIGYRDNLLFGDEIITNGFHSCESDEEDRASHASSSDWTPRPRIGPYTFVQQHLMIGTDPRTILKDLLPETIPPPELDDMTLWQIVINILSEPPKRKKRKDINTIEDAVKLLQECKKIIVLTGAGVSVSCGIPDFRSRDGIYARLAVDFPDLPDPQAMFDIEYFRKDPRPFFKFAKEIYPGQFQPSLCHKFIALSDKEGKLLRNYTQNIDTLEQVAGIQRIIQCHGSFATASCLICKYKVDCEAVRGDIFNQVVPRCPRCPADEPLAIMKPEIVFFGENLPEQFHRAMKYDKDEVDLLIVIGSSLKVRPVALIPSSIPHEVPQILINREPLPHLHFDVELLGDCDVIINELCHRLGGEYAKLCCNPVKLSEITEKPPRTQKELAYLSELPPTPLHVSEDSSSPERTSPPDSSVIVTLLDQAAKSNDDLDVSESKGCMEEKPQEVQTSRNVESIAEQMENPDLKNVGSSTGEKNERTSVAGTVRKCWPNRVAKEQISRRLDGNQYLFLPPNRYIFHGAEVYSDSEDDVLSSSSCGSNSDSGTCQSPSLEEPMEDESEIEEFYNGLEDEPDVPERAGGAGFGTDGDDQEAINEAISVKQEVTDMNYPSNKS
PROCEDURE SUMMARY: Mass spectrometry based SIRT1 deacetylase activation assay
Format: biochemical
CONDITION NOTES: 25 min, mass spectrometry assay, read-out: % Fold Act. (percent maximum fold activation)

Query string: Look up Emax: `O=c1cc(-c2ccccc2C(F)(F)F)oc2c(NS(=O)(=O)c3cccnc3)cccc12`
Result string: < 200%

Query string: Look up Emax: `O=C(Nc1cccc2c(=O)cc(-c3cccc(C(F)(F)F)c3)oc12)c1cccnc1`
Result string: < 200%

Query string: Look up Emax: `O=C(Nc1cccc2c(=O)cc(-c3ccccc3C(F)(F)F)oc12)c1cncnc1`
Result string: < 200%

Query string: Look up Emax: `O=C(Nc1cccc2c(=O)cc(-c3cccc(OC(F)(F)F)c3)oc12)c1cnccn1`
Result string: < 200%

Query string: Look up Emax: `O=C(Nc1cccc2c(=O)cc(-c3c(F)cccc3Cl)oc12)c1cnccn1`
Result string: > 200%

Query string: Look up Emax: `O=C(Nc1cccc2c(=O)cc(-c3cccc(C(F)(F)F)c3)oc12)c1cnccn1`
Result string: < 200%

Query string: Look up Emax: `O=C(Nc1cccc2c(=O)cc(-c3ccccc3C(F)(F)F)oc12)c1cncs1`
Result string: > 200%

Query string: Look up Emax: `O=C(Nc1cccc2c(=O)cc(-c3ccccc3)oc12)c1cscn1`
Result string: < 200%

Query string: Look up Emax: `O=C(Nc1cccc(CN2CCCC2)n1)c1cccc2c(=O)cc(-c3cccc(C(F)(F)F)c3)oc12`
Result string: > 200%

Query string: Look up Emax: O=C(Nc1cccc2c(=O)cc(-c3ccccc3Cl)oc12)c1cccc(OCC(O)CO)n1 (centres unmarked)
Result string: > 200%

Query string: Look up Emax: `CC(C)c1ccccc1-c1cc(=O)c2cccc(NC(=O)c3cnccn3)c2o1`
Result string: > 200%

The reported measurements were obtained from patent US8987258B2.
